Biological target: human GLP-1R (Homo sapiens, UniProt P43220, G168S)
Sequence (P43220 24-463 G168S limits assumed): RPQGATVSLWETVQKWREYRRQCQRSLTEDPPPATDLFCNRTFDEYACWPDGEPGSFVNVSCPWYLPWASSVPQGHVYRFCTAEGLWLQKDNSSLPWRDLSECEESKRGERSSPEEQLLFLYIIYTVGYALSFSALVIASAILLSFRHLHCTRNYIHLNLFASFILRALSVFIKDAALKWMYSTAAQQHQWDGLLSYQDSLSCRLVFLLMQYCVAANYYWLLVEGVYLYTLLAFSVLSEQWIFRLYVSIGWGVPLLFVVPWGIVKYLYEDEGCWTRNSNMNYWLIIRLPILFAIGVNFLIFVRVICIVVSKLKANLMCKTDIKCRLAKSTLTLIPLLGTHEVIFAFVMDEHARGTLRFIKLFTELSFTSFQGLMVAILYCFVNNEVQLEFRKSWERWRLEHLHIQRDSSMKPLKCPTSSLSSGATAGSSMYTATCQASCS
Experiment: CHO GLP-1R Clone H6—Assay 1: HTRF cAMP cell-based functional agonist assay (high GLP-1R density)
Settings: read-out: Assay 1 EC50; CHO GLP-1R Clone H6, cAMP HTRF; geometric mean
METRIC: log10 EC50 (log10 of the value in nM)

COMPOUND	log10 EC50
Cn1nncc1Cn1c(CN2CCC(c3cccc(OCc4ccc(Cl)cc4F)n3)CC2)nc2ccc(C(=O)O)cc21 [Example 11A-72]	0.70
O=C(O)c1ccc2nc(CN3CCC(c4cccc(OCc5ccc(Cl)cc5F)n4)CC3)n(CC3CC(F)(F)C3)c2c1 [Example 11A-51]	2.59
Cc1cc(C)n(CCn2c(CN3CCC(c4cccc(OCc5ccc(Cl)cc5F)n4)CC3)nc3ccc(C(=O)O)cc32)n1 [Example 11A-57]	3.04
COC[C@@H]1C[C@H]1Cn1c(CN2CCC(c3cccc(OCc4ccc(Cl)cc4F)n3)CC2)nc2ccc(C(=O)O)cc21 [Example 1A-30]	2.18
O=C(O)c1ccc2nc(CN3CCC(c4cccc(OCc5ccc(Cl)cc5F)n4)CC3)n(Cc3ccon3)c2c1 [Example 11A-69]	0.72
C[C@H]1CN(c2cccc(OCc3ccc(Cl)cc3F)n2)CCN1Cc1nc2ccc(C(=O)O)cc2n1Cc1cocn1 [Example 10A-13]	0.61
O=C(O)c1ccc2nc(CN3CCN(c4cccc(OCc5ccc(Cl)cc5F)n4)CC3)n(Cc3ncco3)c2c1 [Example 10A-33]	0.18
C[C@H]1CN(c2cccc(OCc3ccc(C#N)cc3F)n2)CCN1Cc1nc2ccc(C(=O)O)cc2n1Cc1ncco1 [Example 10A-15]	0.11
C[C@H]1CN(c2cccc(OCc3ccc(C#N)cc3)n2)CCN1Cc1nc2ccc(C(=O)O)cc2n1CC1CCCO1 (single isomer, unassigned; diastereomer 2) [Example 14A-08]	1.28
Cc1ccn(CCn2c(CN3CCC(c4cccc(OCc5ccc(Cl)cc5F)n4)CC3)nc3ccc(C(=O)O)cc32)n1 [Example 11A-31]	1.86
Cn1c(CN2CCC(c3cccc(OCc4ccc(F)cc4F)n3)CC2)nc2ccc(C(=O)O)cc21 [Example 9A-03]	2.30

###

Target: human GLP-1R (Homo sapiens, UniProt P43220, G168S)
Assay: CHO GLP-1R Clone H6—Assay 1: HTRF cAMP cell-based functional agonist assay (high GLP-1R density)
Conditions: read-out: Assay 1 EC50; CHO GLP-1R Clone H6, cAMP HTRF; geometric mean
Measured EC50 of individual entries
METRIC: EC50 (nM)

COMPOUND	LIMIT_QUALIFIER	REPORTED_VALUE
N#Cc1ccc(COc2cccc(C3CCN(Cc4nc5ccc(C(=O)O)cc5n4C[C@@H]4CCCO4)CC3)n2)c(F)c1 [Example 1A-21]	=	4.9
C[C@H]1CN(c2cccc(OCc3ccc(C#N)cc3F)n2)CCN1Cc1nc2ccc(C(=O)O)nc2n1Cc1ncco1 [Example 2A-21]	=	8.5
COCCn1c(CN2CCN(c3ccc(F)c(OCc4ccc(C#N)cc4)n3)C[C@@H]2C)nc2ccc(C(=O)O)cc21 [Example 1A-08]	=	7.1
Cn1cnnc1Cn1c(CN2CCC(c3cccc(OCc4ccc(Cl)cc4F)n3)CC2)nc2ccc(C(=O)O)cc21 [Example 11A-71]	=	30
COCCN1CCCC(Cn2c(CN3CCC(c4cccc(OCc5ccc(Cl)cc5F)n4)CC3)nc3ccc(C(=O)O)cc32)C1 (stereo not shown) [Example 11A-13]	>	20000
N#Cc1ccc(COc2cccc(C3CCN(Cc4nc5ccc(C(=O)O)nc5n4Cc4cnco4)CC3)n2)c(F)c1 [Example 10A-24]	=	5.7
O=C(O)c1ccc2nc(CN3CCC(c4cccc(OCc5ccc(Cl)cc5F)n4)CC3)n(Cc3n[nH]c(C4CC4)n3)c2c1 [Example 11A-64]	=	2900

###

Molecular target: human GLP-1R (Homo sapiens (Human), UniProt P43220, L260F)
Sequence (P43220 24-463 L260F): as the sequence (P43220 24-463 G168S limits assumed) above, with S145G, L237F counted along it
Assay: CHO GLP-1R Clone C6—Assay 2: HTRF cAMP cell-based functional agonist assay (low GLP-1R density)
Details: CHO GLP-1R Clone C6, cAMP HTRF; geometric mean
Counter-ions that a name gives are not always drawn.
# EC50 annotations

COMPOUND	TARGET_SYSTEM	EC50 (nM)
COCCn1c(CN2CCC(c3cccc(OCc4c(F)cc(Cl)cc4F)n3)CC2)nc2ccc(C(=O)O)cc21 [Example 8A-04]	human GLP-1R (Homo sapiens (Human), UniProt P43220, L260F)	1700
CO[C@H]1C[C@@H](Cn2c(CN3CCC(c4cccc(OCc5ccc(Cl)cc5F)n4)CC3)nc3ccc(C(=O)O)cc32)C1 [Example 1A-28]	human GLP-1R (Homo sapiens (Human), UniProt P43220, L260F)	7700
C[C@H]1CN(c2cccc(OCc3ccc(C#N)cc3F)n2)CCN1Cc1nc2ccc(C(=O)O)cc2n1Cc1cocn1 [Example 10A-14]	human GLP-1R (Homo sapiens (Human), UniProt P43220, L260F)	220
Cn1c(CN2CCC(c3cccc(OCc4ccc(Cl)cc4F)n3)CC2)nc2ccc(C(=O)O)nc21 [Example 2A-01, hydrochloride]	human GLP-1R (Homo sapiens (Human), UniProt P43220, L260F)	1800

###

Biological target: human GLP-1R (Homo sapiens, UniProt P43220, G168S)
Experiment: CHO GLP-1R Clone H6—Assay 1: HTRF cAMP cell-based functional agonist assay (high GLP-1R density)
Conditions: read-out: Assay 1 EC50; CHO GLP-1R Clone H6, cAMP HTRF; geometric mean
pEC50: −log10 of the molar value.
Each entry below carries its recorded pEC50.

MOLECULE	pEC50
O=C(O)c1ccc2nc(CN3CCN(c4cccc(OCc5ccc(Cl)cc5F)n4)CC3)n(C[C@@H]3CCO3)c2n1 [Example 10A-74]	9.05
COCCn1c(CN2CCN(c3cccc(OCc4ccc(Cl)cc4F)n3)[C@@H](C)C2)nc2ccc(C(=O)O)cc21	6.68
N#Cc1ccc(COc2cccc(N3CCN(Cc4nc5ccc(C(=O)O)cc5n4Cc4cnco4)CC3)n2)c(F)c1 [Example 10A-61]	8.82
O=C(O)c1ccc2nc(CN3CCC(c4cccc(OCc5ccc(Cl)cc5F)n4)CC3)n(C3CCOC3)c2c1 (stereo not shown) [Example 11A-26]	7.44
Cn1cncc1Cn1c(CN2CCN(c3cccc(OCc4ccc(C#N)cc4F)n3)CC2)nc2ccc(C(=O)O)cc21 [Example 10A-37]	8.47
C[C@H]1CN(c2ccc(F)c(OCc3ccc(F)cc3F)n2)CCN1Cc1nc2ccc(C(=O)O)cc2n1C[C@@H]1CCO1 [Example 10A-56]	9.30
Cc1nnc(Cn2c(CN3CCC(c4cccc(OCc5ccc(Cl)cc5F)n4)CC3)nc3ccc(C(=O)O)cc32)o1 [Example 10A-29]	6.41
COC1CCN(CCn2c(CN3CCC(c4cccc(OCc5ccc(Cl)cc5F)n4)CC3)nc3ccc(C(=O)O)cc32)CC1 [Example 11A-56]	5.96
O=C(O)c1ccc2nc(CN3CCC(c4cccc(OCc5ccc(Cl)cc5F)n4)CC3)n(Cc3ncon3)c2c1 [Example 10A-70]	8.30
COCCn1c(CN2CCC(c3cccc(OCc4ccc(Cl)cc4F)n3)CC2)nc2cnc(C(=O)O)cc21	6.85
O=C(O)c1cc2c(cn1)nc(CN1CCC(c3cccc(OCc4ccc(Cl)cc4F)n3)CC1)n2Cc1ncco1	8.05
O=C(O)c1ccc2nc(CN3CCC(c4cccc(OCc5ccc(Cl)cc5F)n4)CC3)n(Cc3ncco3)c2n1	8.22
Cc1cc(Cn2c(CN3CCC(c4cccc(OCc5ccc(Cl)cc5F)n4)CC3)nc3ccc(C(=O)O)cc32)no1 [Example 11A-35]	6.96
O=C(O)c1ccc2nc(CN3CCN(c4cccc(OCc5ccc(Cl)cc5F)n4)CC3)n(C[C@@H]3CCO3)c2c1 [Example 10A-08]	9.26
O=C(O)c1ccc2nc(CN3CCC(c4cccc(OCc5ccc(Cl)cc5F)n4)CC3)n([C@@H]3CCOC3)c2c1 [Example 10A-60]	7.51
COCCn1c(CN2CCN(c3cccc(OCc4ccc(Cl)cc4F)n3)C[C@@H]2C(C)C)nc2ccc(C(=O)O)cc21 [Example 12A-05]	5.89
O=C(O)c1ccc2nc(CN3CCN(c4cccc(OCc5ccc(Cl)cc5F)n4)CC3)n(Cc3cnco3)c2c1 [Example 10A-45]	9.00
O=C(O)c1cnc2nc(CN3CCC(c4cccc(OCc5ccc(Cl)cc5F)n4)CC3)n(CC(F)(F)F)c2c1	6.43
COCc1cc(Cn2c(CN3CCC(c4cccc(OCc5ccc(Cl)cc5F)n4)CC3)nc3ccc(C(=O)O)cc32)[nH]n1 [Example 11A-62]	5.66
COCCn1c(CN2CCN(c3cccc(OCc4ccc(C#N)cc4)n3)C[C@@H]2C)nc2ccc(C(=O)O)cc21 [Example 12A-08]	8.21
N#Cc1ccc(COc2cccc(C3CCN(Cc4nc5ccc(C(=O)O)cc5n4C[C@@H]4CCO4)CC3)n2)cc1 [Example 10A-78]	8.80
Cn1c(CN2CCC(c3cccc(OCc4cc(F)ccc4F)n3)CC2)nc2ccc(C(=O)O)cc21	5.74
C[C@H]1CN(c2cccc(OCc3ccc(C#N)cc3F)n2)CCN1Cc1nc2ccc(C(=O)O)cc2n1Cc1cnco1 [Example 10A-17]	8.74
O=C(O)c1ccc2nc(CN3CCC(c4cccc(OCc5ccc(Cl)cc5F)n4)CC3)n(CC3CCC3)c2c1 [Example 11A-16]	7.96
Cn1cc(CCn2c(CN3CCC(c4cccc(OCc5ccc(Cl)cc5F)n4)CC3)nc3ccc(C(=O)O)cc32)cn1 [Example 11A-32]	7.06
CN1CCC[C@@H]1Cn1c(CN2CCC(c3cccc(OCc4ccc(Cl)cc4F)n3)CC2)nc2ccc(C(=O)O)cc21 [Example 11A-34]	6.96
O=C(O)c1ccc2nc(CN3CCC(c4cccc(OCc5ccc(Cl)cc5F)n4)CC3)n(Cc3ncco3)c2c1 [Example 10A-42]	8.57
COCCn1c(CN2CCC(c3cccc(OCc4ccc(Cl)cc4F)n3)CC2)nc2ncc(C(=O)O)nc21	7.37
